Source: patent US10597388B2

- Test system: corn (Zea mays)
- protocol_description: Test A greenhouse herbicide test, pre- and postemergence
- Assay type: in vivo
- details: Postemergence, 125 g ai/ha; 0 to 100 scale where 0 is no effect and 100 is complete control
observation_type: Plant response rating, Corn

{"columns": ["structure_as_smiles", "system_name", "observation_type", "assay_value"],
 "data": [
  ["Cc1ccc2ccccc2c1-c1c(O)c(Cl)nn(C)c1=O", "corn (Zea mays)", "Plant response rating, Corn", 20],
  ["COc1nn(C)c(=O)c(-c2c(C)ccc3ccccc23)c1O", "corn (Zea mays)", "Plant response rating, Corn", 20],
  ["CCC(=O)Oc1c(C)nn(C)c(=O)c1-c1c(C)sc2ccc(Cl)cc12", "corn (Zea mays)", "Plant response rating, Corn", 0]
]}

###

Listed here are compounds together with their documented Plant response rating, Kochia.
- Test system: kochia (Kochia scoparia)
- protocol_description: Test E greenhouse herbicide test, pre- and postemergence
- Format: in vivo
- details: Preemergence, 31 g ai/ha; scale 0 to 100, 0 no effect, 100 complete control

{"columns": ["structure_as_smiles", "Plant response rating, Kochia"],
 "data": [
  ["CCOC(=O)Oc1c(C)nn(C)c(=O)c1-c1c(C)sc2c(C)cc(C)cc12", 0],
  ["CCOC(=O)Oc1c(C)nn(C)c(=O)c1-c1c(CC)ccc2ccccc12", 0],
  ["CCC(=O)Oc1c(C)nn(C)c(=O)c1-c1c(C)sc2ccc(Cl)cc12", 10],
  ["Cc1ccc2ccccc2c1-c1c(O)c(C)nn(C)c1=O", 80]
]}

###

- Test system: surinam grass (Brachiaria decumbens)
- protocol_description: Test E greenhouse herbicide test, pre- and postemergence
- Type: in vivo
- details: 125 g ai/ha, Preemergence; scale 0 to 100 (0 no effect, 100 complete control)
Listed here are molecules together with their documented Plant response rating, Surinam Grass.

{"columns": ["structure_as_smiles", "Plant response rating, Surinam Grass"],
 "data": [
  ["CC(=O)Oc1c(C)nn(C)c(=O)c1-c1c(C)sc2ccc(C)cc12", 90],
  ["CCOC(=O)Oc1c(C)nn(C)c(=O)c1-c1c(C)sc2c(C)cc(C)cc12", 85],
  ["CCC(=O)Oc1c(C)nn(C)c(=O)c1-c1c(C)sc2ccc(Cl)cc12", 40],
  ["CCOC(=O)Oc1c(C)nn(C)c(=O)c1-c1c(CC)ccc2ccccc12", 75]
]}

###

- Tested on: galium (catchweed bedstraw, Galium aparine)
- protocol_description: Test D controlled growth environment herbicide test, pre- and postemergence
- Format: in vivo
- details: Postemergence, 31 g ai/ha; scale 0 to 100 (0 no effect, 100 complete control)
observation_type: Galium plant response rating

{"columns": ["structure_as_smiles", "assay_value"],
 "data": [
  ["Cc1cc(C)c2sc(C)c(-c3c(OC(=O)OC(C)C)c(C)nn(C)c3=O)c2c1", 90],
  ["CCC(=O)Oc1c(C)nn(C)c(=O)c1-c1c(C)sc2ccc(C)cc12", 100],
  ["Cc1nn(C)c(=O)c(-c2c(C)sc3ccc(Cl)cc23)c1O", 85],
  ["Cc1ccc2sc(C)c(-c3c(O)c(C)nn(C)c3=O)c2c1", 80],
  ["COc1nn(C)c(=O)c(-c2c(C)ccc3ccccc23)c1OC(=O)OC(C)C", 100]
]}
